biological target: wild type human HSD17B13 (Homo sapiens (Human), UniProt Q7Z5P4); experiment: HEK_Beta-Est LCMS_IC50_Tekcel, whole-cell HEK-HSD17B13 inhibition assay, estrone production by LCMS; conditions: geometric mean, HEK cells stably expressing wild type human HSD17B13, 25 μM FAC beta-estradiol, read-out: HEK_Beta-Est LCMS_IC50—Tekcel GMean IC50
Sequence (Q7Z5P4 20-300): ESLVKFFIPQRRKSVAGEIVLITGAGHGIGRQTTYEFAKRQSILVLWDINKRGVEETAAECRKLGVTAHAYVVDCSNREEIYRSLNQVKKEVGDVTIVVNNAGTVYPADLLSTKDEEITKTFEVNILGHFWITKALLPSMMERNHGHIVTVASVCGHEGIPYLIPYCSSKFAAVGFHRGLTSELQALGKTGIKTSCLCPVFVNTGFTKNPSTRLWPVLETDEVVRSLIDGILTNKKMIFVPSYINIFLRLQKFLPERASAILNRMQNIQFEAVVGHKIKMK
pIC50: −log10 of the molar value. Structures can show the parent of a compound that is named as a salt.
Measured Property: pIC50

[P] Cn1ccc(-c2ccc3c(c2)CN([C@H]2CC[C@H](CNC(=O)c4cc(F)c(O)c(F)c4)CC2)C3=O)n1
[Q] O=C(NC[C@]12CC[C@](c3nc4ccccc4o3)(CC1)CC2)c1cc(F)c(O)c(F)c1
Q: Which has the higher pIC50, P or Q ? Record your answer as the label of the chosen record.
A: Q

[P] O=C(NC[C@H]1CC[C@H](n2cc3ccc(-n4ccnc4)cc3n2)CC1)c1cc(F)c(O)c(F)c1F [Example 166, trifluoroacetate salt]
[Q] O=C(NC[C@H]1CC[C@H](n2cc3ccc(-c4cnccn4)cc3n2)CC1)c1cc(F)c(O)c(F)c1F
Q: Which record shows the lower pIC50: the first, P , or the second, Q ? Write the label of whichever entry you select.
A: P
(P: 6.39, Q: 6.77)

[A] Cc1ccc(-c2ccc3cn([C@H]4CC[C@H](CNC(=O)c5cc(F)c(O)c(F)c5)CC4)nc3c2)nc1
[B] O=C(NC[C@H]1CC[C@H](n2cc3ccc(-c4cncnc4)cc3n2)CC1)c1cc(F)c(O)c(F)c1
Q: // compare: A vs B , metric pIC50, want the smaller Mark your selection by writing its label.
A: A

[a] CS(=O)(=O)c1ccc(-c2noc([C@H]3CC[C@H](CNC(=O)c4cc(F)c(O)c(F)c4)CC3)n2)cc1
[b] O=C(NC[C@H]1CC[C@H](c2cn3cc(-c4cnn(C(F)F)c4)ccc3n2)CC1)c1cc(F)c(O)c(F)c1F [Example 167, trifluoroacetate salt]
Q: // pick larger pIC50 from pair: a vs b Give the label under which the chosen entry appears.
A: b
